Consider the following compounds; for each one, report its EC50.
Tested on: Thoracic aortic rings
experiment-description: Alternative thoracic aortic rings assay (Example 19b; resting tension as 100% inhibition)
Set-up: species or system rat
condition-info: Table 10B; read-out: Aortic Ring EC50

Nc1nc(-c2cc(-c3ccon3)n(Cc3ccccc3F)n2)ncc1C1(O)CC1 [Compound I-119]    < 2000 nM

Next up:
I have this compound here, Nc1nc(-c2cc(-c3ccon3)n(Cc3ccccc3F)n2)ncc1NC(=O)c1ccccc1 [Compound I-126] , and I need its recorded EC50.
< 2000 nM

---

assayed-target: Human soluble guanylate cyclase enzyme (hsGC) (Homo sapiens (Human), UniProt Q02108+Q02153)
Sequence (Q02153 whole entry): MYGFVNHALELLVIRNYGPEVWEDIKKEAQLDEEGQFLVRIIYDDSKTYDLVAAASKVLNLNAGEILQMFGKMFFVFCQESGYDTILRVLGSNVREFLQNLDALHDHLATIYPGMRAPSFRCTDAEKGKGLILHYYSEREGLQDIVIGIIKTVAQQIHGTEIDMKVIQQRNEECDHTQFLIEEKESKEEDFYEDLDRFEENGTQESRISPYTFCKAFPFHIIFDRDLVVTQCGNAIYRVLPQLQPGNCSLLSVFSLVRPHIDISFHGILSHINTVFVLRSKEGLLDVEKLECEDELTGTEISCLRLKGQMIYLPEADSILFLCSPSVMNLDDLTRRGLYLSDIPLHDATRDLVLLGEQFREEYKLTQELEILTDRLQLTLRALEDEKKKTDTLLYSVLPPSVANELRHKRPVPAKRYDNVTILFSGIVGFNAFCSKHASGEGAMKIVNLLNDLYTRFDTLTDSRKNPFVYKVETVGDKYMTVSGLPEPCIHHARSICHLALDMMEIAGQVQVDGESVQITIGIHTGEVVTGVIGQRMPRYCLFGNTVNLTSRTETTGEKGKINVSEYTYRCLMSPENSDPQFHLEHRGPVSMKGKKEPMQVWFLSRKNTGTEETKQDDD
Sequence (Q02108 whole entry): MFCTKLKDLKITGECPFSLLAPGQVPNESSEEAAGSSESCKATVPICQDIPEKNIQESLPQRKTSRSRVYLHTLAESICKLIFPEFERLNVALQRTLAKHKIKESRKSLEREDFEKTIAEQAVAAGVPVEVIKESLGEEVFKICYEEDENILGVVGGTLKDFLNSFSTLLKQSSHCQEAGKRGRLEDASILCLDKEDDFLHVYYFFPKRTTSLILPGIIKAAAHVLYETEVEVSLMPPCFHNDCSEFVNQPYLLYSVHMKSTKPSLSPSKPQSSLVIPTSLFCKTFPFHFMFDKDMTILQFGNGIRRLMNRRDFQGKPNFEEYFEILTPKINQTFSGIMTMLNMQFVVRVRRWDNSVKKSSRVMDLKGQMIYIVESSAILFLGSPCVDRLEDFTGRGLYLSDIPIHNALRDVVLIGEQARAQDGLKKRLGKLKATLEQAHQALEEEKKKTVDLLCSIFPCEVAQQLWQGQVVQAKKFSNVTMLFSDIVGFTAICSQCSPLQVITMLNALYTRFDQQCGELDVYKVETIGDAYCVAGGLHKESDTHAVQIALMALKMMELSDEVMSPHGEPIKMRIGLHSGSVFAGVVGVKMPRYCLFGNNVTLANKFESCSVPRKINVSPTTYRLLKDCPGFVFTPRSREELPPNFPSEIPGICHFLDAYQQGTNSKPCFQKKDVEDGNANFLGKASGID
experiment-description: Purified human sGC enzyme activity assay
Format: biochemical
condition-info: 30 μM compound
reported-metric: sGC Enzyme (specific activity at 30 μM)

Example entries and their recorded answers appear below.
Nc1ccnc(-c2cc(-c3ccccn3)n(Cc3ccccc3F)n2)n1    C (C = 100 to <200)
Fc1ccccc1Cn1nc(-c2ccccn2)cc1-c1ccsc1    D (D = 200 to <500)
CC(C)c1cc(-c2ccccn2)nn1Cc1ccccc1F    D (D = 200 to <500)
Fc1ccccc1Cn1nc(-c2ccccn2)cc1-c1cccnc1    D (D = 200 to <500)
Cc1ccc(-c2cc(-c3ncccn3)nn2Cc2ccccc2F)cc1    C (C = 100 to <200)

# context switch: different compound, same sGC Enzyme (specific activity at 30 μM)
Returns the measured sGC Enzyme (specific activity at 30 μM) for the input compound. Input: Fc1ccccc1Cn1nc(-c2ccccn2)cc1-c1nnn[nH]1
C (C = 100 to <200)
